Details: in isopropanol, 318.15 K
Outcome measure: solubility (mole fraction)
Numbers only.

Asked: In one line, give reported solubility (mole fraction) of the entry COc1cc2c(cc1OC)-c1cc3ccc(OC)c(OC)c3c[n+]1CC2.[Cl-] .
Given back: 0.000933

---

Conditions: in ethylene glycol, 288.15 K
Outcome measure: solubility (mole fraction)
Numbers only.

Asked: In one line, give reported solubility (mole fraction) of the entry COc1cc2c(cc1OC)-c1cc3ccc(OC)c(OC)c3c[n+]1CC2.[Cl-] .
Given back: 0.00202

---

Conditions: in ethylene glycol, 328.15 K
Outcome measure: solubility (mole fraction)

Asked: In one line, give reported solubility (mole fraction) of the entry COc1cc2c(cc1OC)-c1cc3ccc(OC)c(OC)c3c[n+]1CC2.[Cl-] .
Given back: 0.00882
